details: 393.15 K; 20000 kPa; Liquid
reported.endpoint: mass density (kg/m3)

molecule="CCCOC(C)=O [propyl ethanoate]" value_observed=803.8
molecule="CCOC(C)=O [ethyl acetate]" value_observed=807.6
molecule="CCCCOC(C)=O [butyl ethanoate]" value_observed=804.2
molecule="CCCCCOC(C)=O [pentyl ethanoate]" value_observed=803.9

* * *

settings: 298.15 K; 5000 kPa; Liquid
reported.endpoint: mass density (kg/m3)

compound="CCCOC(C)=O [propyl ethanoate]" value_observed=886.4
compound="CCCCCOC(C)=O [pentyl ethanoate]" value_observed=875.3
compound="CCOC(C)=O [ethyl acetate]" value_observed=898.8
compound="CCCCOC(C)=O [butyl ethanoate]" value_observed=879.9

* * *

details: 353.15 K; 35000 kPa; Liquid
reported.endpoint: mass density (kg/m3)

molecule="CCCOC(C)=O [propyl ethanoate]" measure_unit=kg/m3 value_observed=862.7
molecule="CCOC(C)=O [ethyl acetate]" measure_unit=kg/m3 value_observed=869.6
molecule="CCCCCOC(C)=O [pentyl ethanoate]" measure_unit=kg/m3 value_observed=855.4
molecule="CCCCOC(C)=O [butyl ethanoate]" measure_unit=kg/m3 value_observed=858.4

* * *

conditions: 373.15 K; 20000 kPa; Liquid
reported.endpoint: mass density (kg/m3)

compound="CCCCOC(C)=O [butyl ethanoate]" value_observed=821.3
compound="CCCOC(C)=O [propyl ethanoate]" value_observed=822.9
compound="CCOC(C)=O [ethyl acetate]" value_observed=829
compound="CCCCCOC(C)=O [pentyl ethanoate]" value_observed=819.8

* * *

conditions: 353.15 K; 10000 kPa; Liquid
reported.endpoint: mass density (kg/m3)

compound="CCOC(C)=O [ethyl acetate]" reported_endpoint="mass density" value_observed=837.7
compound="CCCOC(C)=O [propyl ethanoate]" reported_endpoint="mass density" value_observed=833.3
compound="CCCCOC(C)=O [butyl ethanoate]" reported_endpoint="mass density" value_observed=831.3
compound="CCCCCOC(C)=O [pentyl ethanoate]" reported_endpoint="mass density" value_observed=829.8

* * *

conditions: 323.15 K; 10000 kPa; Liquid
reported.endpoint: mass density (kg/m3)

compound="CCCCCOC(C)=O [pentyl ethanoate]" reported_endpoint="mass density" value_observed=856.1
compound="CCOC(C)=O [ethyl acetate]" reported_endpoint="mass density" value_observed=874.2
compound="CCCCOC(C)=O [butyl ethanoate]" reported_endpoint="mass density" value_observed=859.4
compound="CCCOC(C)=O [propyl ethanoate]" reported_endpoint="mass density" value_observed=864.1

* * *

conditions: 338.15 K; 30000 kPa; Liquid
reported.endpoint: mass density (kg/m3)

molecule="CCCCCOC(C)=O [pentyl ethanoate]" value_observed=861.3
molecule="CCCOC(C)=O [propyl ethanoate]" value_observed=869.6
molecule="CCCCOC(C)=O [butyl ethanoate]" value_observed=864.6
molecule="CCOC(C)=O [ethyl acetate]" value_observed=880.3

* * *

settings: 343.15 K; 100 kPa; Liquid
reported.endpoint: mass density (kg/m3)

molecule="CCCCCOC(C)=O [pentyl ethanoate]" reported_endpoint="mass density" value_observed=828.3
molecule="CCCCOC(C)=O [butyl ethanoate]" reported_endpoint="mass density" value_observed=829.5
molecule="CCOC(C)=O [ethyl acetate]" reported_endpoint="mass density" value_observed=837.5
molecule="CCCOC(C)=O [propyl ethanoate]" reported_endpoint="mass density" value_observed=831.2

* * *

conditions: 328.15 K; 35000 kPa; Liquid
reported.endpoint: mass density (kg/m3)

compound="CCCOC(C)=O [propyl ethanoate]" value_observed=884.4
compound="CCCCCOC(C)=O [pentyl ethanoate]" value_observed=874
compound="CCCCOC(C)=O [butyl ethanoate]" value_observed=877.7
compound="CCOC(C)=O [ethyl acetate]" value_observed=896.2

* * *

details: 378.15 K; 10000 kPa; Liquid
reported.endpoint: mass density (kg/m3)

molecule="CCCCCOC(C)=O [pentyl ethanoate]" measure_unit=kg/m3 value_observed=803.5
molecule="CCCCOC(C)=O [butyl ethanoate]" measure_unit=kg/m3 value_observed=804.7
molecule="CCCOC(C)=O [propyl ethanoate]" measure_unit=kg/m3 value_observed=803.3
molecule="CCOC(C)=O [ethyl acetate]" measure_unit=kg/m3 value_observed=808.5

* * *

conditions: 343.15 K; 5000 kPa; Liquid
reported.endpoint: mass density (kg/m3)

compound="CCCCCOC(C)=O [pentyl ethanoate]" value_observed=833.5
compound="CCCCOC(C)=O [butyl ethanoate]" value_observed=835.2
compound="CCOC(C)=O [ethyl acetate]" value_observed=844.5
compound="CCCOC(C)=O [propyl ethanoate]" value_observed=837.6

* * *

details: 323.15 K; 20000 kPa; Liquid
reported.endpoint: mass density (kg/m3)

compound="CCCCOC(C)=O [butyl ethanoate]" value_observed=868.1
compound="CCCOC(C)=O [propyl ethanoate]" value_observed=873.5
compound="CCCCCOC(C)=O [pentyl ethanoate]" value_observed=864.2
compound="CCOC(C)=O [ethyl acetate]" value_observed=884.3

* * *

conditions: 298.15 K; 100 kPa; Liquid
reported.endpoint: mass density (kg/m3)

molecule="CCCOC(C)=O [propyl ethanoate]" measure_unit=kg/m3 value_observed=882
molecule="CCCCOC(C)=O [butyl ethanoate]" measure_unit=kg/m3 value_observed=875.7
molecule="CCCCCOC(C)=O [pentyl ethanoate]" measure_unit=kg/m3 value_observed=871.4
molecule="CCOC(C)=O [ethyl acetate]" measure_unit=kg/m3 value_observed=894

* * *

settings: 348.15 K; 5000 kPa; Liquid
reported.endpoint: mass density (kg/m3)

compound="CCCCOC(C)=O [butyl ethanoate]" measure_unit=kg/m3 value_observed=830.5
compound="CCCCCOC(C)=O [pentyl ethanoate]" measure_unit=kg/m3 value_observed=828.8
compound="CCCOC(C)=O [propyl ethanoate]" measure_unit=kg/m3 value_observed=832.2
compound="CCOC(C)=O [ethyl acetate]" measure_unit=kg/m3 value_observed=836.8

* * *

details: 373.15 K; 5000 kPa; Liquid
reported.endpoint: mass density (kg/m3)

compound="CCOC(C)=O [ethyl acetate]" reported_endpoint="mass density" value_observed=806
compound="CCCOC(C)=O [propyl ethanoate]" reported_endpoint="mass density" value_observed=802.3
compound="CCCCCOC(C)=O [pentyl ethanoate]" reported_endpoint="mass density" value_observed=802.5
compound="CCCCOC(C)=O [butyl ethanoate]" reported_endpoint="mass density" value_observed=803.1

* * *

settings: 348.15 K; 2000 kPa; Liquid
reported.endpoint: mass density (kg/m3)

compound="CCCOC(C)=O [propyl ethanoate]" reported_endpoint="mass density" value_observed=828.1
compound="CCCCOC(C)=O [butyl ethanoate]" reported_endpoint="mass density" value_observed=826.7
compound="CCCCCOC(C)=O [pentyl ethanoate]" reported_endpoint="mass density" value_observed=825.7
compound="CCOC(C)=O [ethyl acetate]" reported_endpoint="mass density" value_observed=832.3

* * *

details: 358.15 K; 20000 kPa; Liquid
reported.endpoint: mass density (kg/m3)

compound="CCCCOC(C)=O [butyl ethanoate]" reported_endpoint="mass density" value_observed=835.5
compound="CCOC(C)=O [ethyl acetate]" reported_endpoint="mass density" value_observed=845.2
compound="CCCOC(C)=O [propyl ethanoate]" reported_endpoint="mass density" value_observed=837.2
compound="CCCCCOC(C)=O [pentyl ethanoate]" reported_endpoint="mass density" value_observed=832.5

* * *

settings: 363.15 K; 1000 kPa; Liquid
reported.endpoint: mass density (kg/m3)

compound="CCCCOC(C)=O [butyl ethanoate]" value_observed=807.5
compound="CCOC(C)=O [ethyl acetate]" value_observed=811.8
compound="CCCOC(C)=O [propyl ethanoate]" value_observed=806.9
compound="CCCCCOC(C)=O [pentyl ethanoate]" value_observed=807.4

* * *

details: 318.15 K; 10000 kPa; Liquid
reported.endpoint: mass density (kg/m3)

compound="CCCCOC(C)=O [butyl ethanoate]" value_observed=864.2
compound="CCCOC(C)=O [propyl ethanoate]" value_observed=869.4
compound="CCOC(C)=O [ethyl acetate]" value_observed=880
compound="CCCCCOC(C)=O [pentyl ethanoate]" value_observed=860.7

* * *

settings: 383.15 K; 2000 kPa; Liquid
reported.endpoint: mass density (kg/m3)

compound="CCCOC(C)=O [propyl ethanoate]" value_observed=785.5
compound="CCCCOC(C)=O [butyl ethanoate]" value_observed=788.3
compound="CCOC(C)=O [ethyl acetate]" value_observed=787.1
compound="CCCCCOC(C)=O [pentyl ethanoate]" value_observed=789.6

* * *

conditions: 308.15 K; 3000 kPa; Liquid
reported.endpoint: mass density (kg/m3)

compound="CCCCCOC(C)=O [pentyl ethanoate]" measure_unit=kg/m3 value_observed=863.9
compound="CCCCOC(C)=O [butyl ethanoate]" measure_unit=kg/m3 value_observed=867.8
compound="CCCOC(C)=O [propyl ethanoate]" measure_unit=kg/m3 value_observed=873.2
compound="CCOC(C)=O [ethyl acetate]" measure_unit=kg/m3 value_observed=884.4

Origin of the recorded values: the NIST ThermoML archive (doi:10.1021/je060339m)
